Target: Muscarinic acetylcholine receptor M1 (Homo sapiens) (UniProt P11229)
Sequence (P11229 whole entry, looked up): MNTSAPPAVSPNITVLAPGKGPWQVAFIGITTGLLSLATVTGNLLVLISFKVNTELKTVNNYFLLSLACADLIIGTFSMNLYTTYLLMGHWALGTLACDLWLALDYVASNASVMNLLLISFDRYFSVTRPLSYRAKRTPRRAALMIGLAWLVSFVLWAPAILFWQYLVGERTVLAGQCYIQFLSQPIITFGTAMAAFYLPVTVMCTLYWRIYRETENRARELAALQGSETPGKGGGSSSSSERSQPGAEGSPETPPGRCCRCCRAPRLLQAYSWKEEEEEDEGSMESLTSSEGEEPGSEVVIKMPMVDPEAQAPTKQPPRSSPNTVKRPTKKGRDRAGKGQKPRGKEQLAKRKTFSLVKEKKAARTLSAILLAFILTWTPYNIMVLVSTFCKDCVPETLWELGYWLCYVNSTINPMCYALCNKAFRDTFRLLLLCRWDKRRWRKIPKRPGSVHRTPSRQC
Test: CHRM1 blockers of acetylcholine calcium response – CHO-K1 cells, Fluo-8 calcium fluorescence, 1536-well, primary screen (AID 588852);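 note: peak over basal fluorescence ratio during 140 s after agonist addition; 0% = ACh EC80 plus DMSO and 100% = DMSO alone without agonist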
Conditions: CHO-K1 hM1, Fluo-8 calcium fluorescence, ACh EC80 antagonist; at 3 µM; stronger effect = higher value
In all, about 360,000 compounds went through this assay and about 4,600 (1.3%) were called active. The list comes from a sample in which actives are over-represented; it also holds close analogues and randomly drawn compounds.
Please go through the items and note down their inhibition.
One number for each entry, in %.

Some entries whose results are on file:
- molecule: "O=C(c1cc(Cl)cc(Cl)c1)N1CCC(=O)N(C(COCc2ccccc2)Cc2ccccc2)CC1 (stereo not given)"
  inhibition / %: 7.3
- molecule: "Cc1cccc(-c2nc3ccc(C(=O)NCCN4CCN(C)CC4)cc3nc2-c2cccc(C)c2)c1"
  inhibition / %: 46.9
- molecule: "C[C@@H](CN1CCC[C@H]1CN1C(N)=NC[C@@H]1Cc1ccccc1)N1C[C@@H](Cc2ccccc2)N(CCCC2CCCC2)C1=N"
  inhibition / %: 93.1
- molecule: "Cc1cccc2c1-c1sc(C(=O)NCCCN3CCc4ccccc4C3)cc1CO2"
  inhibition / %: 58.2
- molecule: "CN(C)CCCCCN(C)Cc1cc2ccccc2o1"
  inhibition / %: -3.73

Batch request: inhibition for each of the following molecules.
1. Cc1ccc([C@@H]2CC(=O)[C@@H]3CN(S(=O)(=O)c4ccc(C)cc4)[C@H](c4ccccc4F)C[C@@H]3N2S(=O)(=O)c2ccc(Cl)cc2)cc1
2. CCCCN1C(N)=NC[C@@H]1Cc1ccccc1
3. Cc1ccc(NC(=O)CN2CCc3ccccc3C2)cc1C
4. CCOC(=O)c1ccccc1NS(=O)(=O)c1c(C)nc2sccn2c1=O
5. Cc1cccc(C)c1NC(=O)c1ccc(CN2CCc3ccccc3C2)cc1

## Output
[-10, -1.32, -11, 6.39, 4.61]

---

Assign inhibition to each entry below.
Biological target: Muscarinic acetylcholine receptor M1 (Homo sapiens) (UniProt P11229)
Test: CHRM1 blockers of acetylcholine calcium response – CHO-K1 cells, Fluo-8 calcium fluorescence, 1536-well, primary screen (AID 588852);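 note: peak over basal fluorescence ratio during 140 s after agonist addition; 0% = ACh EC80 plus DMSO and 100% = DMSO alone without agonist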
Conditions: CHO-K1 hM1, Fluo-8 calcium fluorescence, ACh EC80 antagonist; at 3 µM; stronger effect = higher value
About 4,600 (1.3%) of roughly 360,000 compounds were called active. The full list was thinned out, with actives kept by preference.
Numbers only, in %.

Solved cases below.
- compound: "O=C(O)C(c1ccccc1)C1(O)CCCCC1 (stereo not drawn)"
  unit-descriptor: "%"
  inhibition: -17.6
- compound: "OCC1(CCc2ccccc2)CCN(Cc2ccc3nsnc3c2)CC1"
  unit-descriptor: "%"
  inhibition: -4.82
- compound: "Cc1c(C)n(Cc2ccc(Cl)cc2)c2ccc(C(=O)NCCCN3CCOCC3)cc12"
  unit-descriptor: "%"
  inhibition: 12.4
- compound: "COc1ccccc1CNS(=O)(=O)c1cc(C(=O)NCc2ccccn2)c(Cl)cc1Cl"
  unit-descriptor: "%"
  inhibition: 5.67
- compound: "CN(Cc1ccccc1F)c1cc2c(c3c1ccn3C)C1CCC2O1 (stereo not drawn)"
  unit-descriptor: "%"
  inhibition: -40.5
- compound: "Cn1cnnc1Sc1ccc(CN2CCN(C3CCCC3)C(CCO)C2)o1 (stereo not drawn)"
  unit-descriptor: "%"
  inhibition: 25.2

Could you report inhibition for every entry in the following list?
1. CCC(C)C(CO)NC(=O)/C=C/[C@H]1O[C@@H](n2cnc3c(NC(=O)c4ccccc4)ncnc32)[C@H](O)[C@@H]1O (stereo partly drawn)
2. COc1ccc(C(O)(C2CCCCC2)C(CN2CCCC2)c2ccccc2)cc1 (stereo not drawn)
3. OCCC1CN(Cc2ccc3nsnc3c2)CCN1C1CCCC1 (stereo not drawn)
4. COc1ccc(CC(N)c2csc(NC(=O)NC(c3ccccc3)c3ccccc3)n2)cc1 (stereo not drawn)
5. COc1ccccc1-c1cnn2c(N3CCOCC3)cc(C)nc12
6. Cc1ccc(CN2CCN(Cc3ccc4ncccc4c3)CC2CCO)cc1 (stereo not drawn)
7. COc1cccc(CNc2nc(NCc3cccs3)nc3ccsc23)c1

## Output
1: 3.77; 2: 10.3; 3: 45.8; 4: -1.87; 5: -0.68; 6: 5.31; 7: 51.9

Could you report inhibition for every entry in the following list?
1. CCOC(=O)C1(CCOC)CCN(Cc2ccc(C(=O)OC)cc2)CC1
2. CC(C)N1CCC(N2CCN(Cc3cccnc3)CC2CCO)CC1 (stereo not drawn)
3. Cc1csc2nc(COC(=O)c3cccc(N(C)C)c3)cc(=O)n12
4. COC(=O)CCCCC1=CCC2C(=O)C=C(O)C2C1 (stereo not drawn)
5. Cc1ccc(CN2CCN(Cc3ccc(OCCO)cc3)CC2CCO)o1 (stereo not drawn)
6. COc1ccc(-c2cc(NC(C)=O)c3ncc(-c4cc(OC)c(OC)c(OC)c4)n3c2)cn1

## Output
1. -9.07
2. -8.8
3. 6.38
4. 4.53
5. -10.3
6. -10.3

For each of the items listed, what is its inhibition?
1. CC1=NC2(CCCc3c2no[n+]3[O-])N(O)C1(C)C (stereo not drawn)
2. OCCC1CN(Cc2ccc3nsnc3c2)CCN1C1CCCCC1 (stereo not drawn)
3. Cc1onc(C(=O)NN)c1C(=O)N1CCN(C(c2ccccc2)c2ccccc2)CC1
4. CN(C)CCOC(=O)C(c1ccccc1)C1(O)CCCC1 (stereo not drawn)

## Output
1: 0.36; 2: 31.7; 3: 4.44; 4: 99.4

Hello, the source for this data is PubChem BioAssay AID588852, in case you need it.
